# Target Or Test System: human MASP-2 (human, UniProt O00187 16-686)
# Sequence (O00187 16-686): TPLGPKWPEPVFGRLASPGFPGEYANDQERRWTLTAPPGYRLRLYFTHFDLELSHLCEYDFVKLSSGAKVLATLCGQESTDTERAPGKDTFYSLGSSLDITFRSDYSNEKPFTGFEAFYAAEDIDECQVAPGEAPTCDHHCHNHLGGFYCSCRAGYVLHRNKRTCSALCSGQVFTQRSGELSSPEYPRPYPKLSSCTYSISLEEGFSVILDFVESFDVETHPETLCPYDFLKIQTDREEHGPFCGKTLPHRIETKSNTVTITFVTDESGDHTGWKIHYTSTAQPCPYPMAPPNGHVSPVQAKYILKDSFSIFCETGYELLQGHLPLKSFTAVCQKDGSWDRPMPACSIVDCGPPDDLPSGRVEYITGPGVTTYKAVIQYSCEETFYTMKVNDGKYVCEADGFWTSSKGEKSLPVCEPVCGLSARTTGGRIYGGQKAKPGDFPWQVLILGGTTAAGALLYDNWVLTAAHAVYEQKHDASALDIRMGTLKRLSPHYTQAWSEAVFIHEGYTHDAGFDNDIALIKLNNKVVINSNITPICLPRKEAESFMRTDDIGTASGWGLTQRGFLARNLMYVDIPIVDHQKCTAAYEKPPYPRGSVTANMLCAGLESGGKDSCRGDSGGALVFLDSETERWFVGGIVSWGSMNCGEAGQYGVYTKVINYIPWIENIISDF
# Measurement Notes: cell-based or functional assay
In this section we review reported Functional IC50, C3b deposition, human serum Exp #1 values for a set of binders.
State just the number; it will be interpreted in nM.

Completed entries (count: 3):
Let me know recorded Functional IC50, C3b deposition, human serum Exp #1 for scFv mother clone 18L16 (scFv) scFv: QVTLKESGPVLVKPTETLTLTCTVSGFSLSNARMGVSWIRQPPGKALEWLAHIFSNDEKSYSTSLKSRLTISKDTSKSQVVLTMTNMDPVDTATYYCARMAILTAGGMDVWGQGTTVTVSSKLSGSASAPKLEEGEFSEARVSYVLTQPPSVSASPGQTASITCSGDKLGDKYVSWYQQKPGRSPVLVIYRDTKRPSGIPERFSGSNYGNTATLTISGTQAVDEADYYCQAWDSGSGVFGGGTKVTVLAAAGSEQKLISEEDLNSHHHHHH , thanks.
6.1

Provide one value: measured Functional IC50, C3b deposition, human serum Exp #1 of scFv mother clone 17D20 (scFv, also called 17D20 (17P10); 17D20mc) scFv: QVTLKESGPVLVKPTETLTLTCTVSGFSLSRGKMGVSWIRQPPGKALEWLAHIFSSDEKSYRTSLKSRLTISKDTSKNQVVLTMTNMDPVDTATYYCARIRAGGIDYWGQGTLVTVSSKLSGSASAPKLEEGEFSEARVQPVLTQPPSVSVSPGQTASITCSGDKLGDKFAYWYQQKPGHSPVLVIYQDNKRPSGIPGRFSGSNSGNTATLTISGTQAMDEADYYCQAWDSSTAVFGTGTKVTVLAAAGSEQKLISEEDLNSHHHHHH
157

Entry scFv mother clone 4D9 (scFv, also called 4D9 (18L16)) scFv: QITLKESGPVLVKPTETLTLTCTVSGFSLSNARMGVSWIRQPPGKALEWLAHIFSNDEKSYSTSLKSRLTISKDTSKSQVVLTMTNMDPVDTATYYCARMRYSSSLYGMDVWGQGTRVTVSSKLSGSASAPKLEEGEFSEARVSYELIQPPSVSVSPGQTASITCSGDKLGDKYVSWYQQKPGRSPVLVIYRDTKRPSGIPERFSGSNSGNTATLTISGTQAMDEADYYCQAWDSSTVVFGGGTKLTVLAAAGSEQKLISEEDLNSHHHHHH needs its Functional IC50, C3b deposition, human serum Exp #1 filled in; supply it.
22

With those in mind, consider the next binder.
Consider the binder scFv mother clone 3F22 (scFv) scFv: QVQLQQSGPGLVKPSQTLSLTCAISGDSVSSNSAAWNWIRQSPSRGLEWLGRTYYRSKWYNDYAVSVKSRITINPDTSKNQFSLQLNSVTPEDTAVYYCARDPFGVPFDIWGQGTMVTVSSKLSGSASAPKLEEGEFSEARVSYVLTQPPSVSVAPGQTARVTCGGNNIRSKNVHWYQQKPGQAPVLVVYDDTDRPSGIPERFSGSNSGNTATLTVSRVEAGDEADYYCQVWDTTTDHVVFGGGTKLTVLAAAGSEQKLISEEDLNSHHHHHH . State its measured Functional IC50, C3b deposition, human serum Exp #1.
20.6
